- Test system: Staphylococcus aureus
- assay_notes: Antimicrobial activity against Staphylococcus aureus ATCC 29513 at 500 ug/ml after 24 hrs by cup plate method
- Type: functional
- condition: ATCC 29513, 24 h, read-out: IZ
Overview of recorded zone of inhibition at 500 µg/mL for various compounds
Answer format: numeric, mm implied, no suffix.

O=c1[nH]cnc2c1C(c1c(-c3ccccc3)[nH]c3ccc(Cl)cc13)C=C(c1ccccc1)O2 (centres undefined) ... 12
Cc1ccc2[nH]c(-c3ccccc3)c(C3C=C(c4ccccc4)Oc4[nH]c(=S)nc(N)c43)c2c1 (centres undefined) ... 10
Nc1nc(=S)[nH]c2c1C(c1c(-c3ccccc3)[nH]c3ccc(Cl)cc13)C=C(c1ccccc1)O2 (centres undefined) ... 9

--- query ---
Request the reported zone of inhibition at 500 µg/mL associated with Cc1ccc2[nH]c(-c3ccccc3)c(C3C=C(c4ccccc4)Oc4nc5oc(=O)c(C#N)c(N)c5c(N)c43)c2c1 (centres undefined)
9

====

- Tested on: Pseudomonas aeruginosa
- assay_notes: Antimicrobial activity against Pseudomonas aeruginosa MTCC 1688 at 1000 ug/ml after 24 hrs by cup plate method
- Format: functional
- condition: MTCC 1688, 24 h, read-out: IZ
zone of inhibition at 1000 µg/mL vs 6 mm: at or above is Fulfilled, below is Not fulfilled.

Cc1ccc(C2=CC(c3c(-c4ccccc4)[nH]c4ccccc34)c3c(N)nc(=S)[nH]c3O2)cc1 (stereo not given) ... Not fulfilled
Nc1n[nH]c2c1C(c1c(-c3ccccc3)[nH]c3ccccc13)C=C(c1ccccc1)O2 (stereo not given) ... Fulfilled
Nc1nc(=O)[nH]c2c1C(c1c(-c3ccccc3)[nH]c3ccccc13)C=C(c1ccc(Cl)cc1)O2 (stereo not given) ... Fulfilled
Cc1ccc(C2=CC(c3c(-c4ccccc4)[nH]c4ccc(C)cc34)C(C#N)=C(N)O2)cc1 (stereo not given) ... Fulfilled
N#Cc1c(N)c2c(N)c3c(nc2oc1=O)OC(c1ccccc1)=CC3c1c(-c2ccccc2)[nH]c2ccccc12 (stereo not given) ... Not fulfilled

zone of inhibition at 1000 µg/mL >= 6 mm for Nc1nc(=S)[nH]c2c1C(c1c(-c3ccccc3)[nH]c3ccccc13)C=C(c1ccc(Cl)cc1)O2 (stereo not given) ?
Fulfilled

Could you please find out whether Cc1ccc2[nH]c(-c3ccccc3)c(C3C=C(c4ccc(Cl)cc4)Oc4[nH]c(=O)nc(N)c43)c2c1 (stereo not given) has zone of inhibition at 1000 µg/mL that meets 6 mm or exceeds it?
Not fulfilled

Is it the case that Cc1ccc2[nH]c(-c3ccccc3)c(C3C=C(c4ccc(Cl)cc4)Oc4[nH]c(=S)nc(N)c43)c2c1 (stereo not given) has zone of inhibition at 1000 µg/mL reaching or exceeding 6 mm?
Fulfilled

Is zone of inhibition at 1000 µg/mL for N#CC1=C(N)OC(c2ccc(Cl)cc2)=CC1c1c(-c2ccccc2)[nH]c2ccccc12 (stereo not given) at or above 6 mm?
Fulfilled

Please tell me: is the molecule O=c1[nH]cnc2c1C(c1c(-c3ccccc3)[nH]c3ccc(Cl)cc13)C=C(c1ccc(Cl)cc1)O2 (stereo not given) at or over 6 mm in terms of zone of inhibition at 1000 µg/mL?
Fulfilled

Has Cc1ccc(C2=CC(c3c(-c4ccccc4)[nH]c4ccc(Cl)cc34)C(C#N)=C(N)O2)cc1 (stereo not given) a recorded zone of inhibition at 1000 µg/mL greater than or equal to 6 mm?
Not fulfilled
